Let's look at some compounds and their measured pKi.
- target or system: 5-HT1A-Clone (Homo sapiens, UniProt P08908)
- Sequence (P08908 1-422): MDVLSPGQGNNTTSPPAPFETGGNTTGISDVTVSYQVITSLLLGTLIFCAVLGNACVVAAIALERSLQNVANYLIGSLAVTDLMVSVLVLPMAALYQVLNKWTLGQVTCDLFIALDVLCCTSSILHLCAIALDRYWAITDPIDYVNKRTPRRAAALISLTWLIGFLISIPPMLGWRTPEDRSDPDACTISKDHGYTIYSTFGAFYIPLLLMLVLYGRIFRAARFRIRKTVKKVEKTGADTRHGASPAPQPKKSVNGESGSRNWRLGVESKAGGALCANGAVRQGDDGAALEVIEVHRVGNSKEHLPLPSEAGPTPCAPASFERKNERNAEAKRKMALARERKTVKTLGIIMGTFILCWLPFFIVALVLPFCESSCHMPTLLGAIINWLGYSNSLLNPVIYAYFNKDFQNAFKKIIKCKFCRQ
Please express pKi as -log10 of the molar concentration.

CCCN(CCC)[C@H]1Cc2cccc3c2n(c(=O)n3OC)C1 [Ex. 4 S-Enantiomer]; 6.04

query: Please indicate pKi recorded for CCCN(CCC)[C@@H]1Cc2cccc3c2n(c(=O)n3OC)C1 [Ex. 4 R-Enantiomer]
result: 7.01
